From: PubChem BioAssay (EPA / NIEHS)

read-out: E-selectin (Homo sapiens); experiment: BSK_SAg_Eselectin: BioMAP Diversity Plus: SAg Assay for Eselectin Biomarker Activity (AID 2283091); settings: primary human HUVEC with PBMC; actives raise or lower the signal
Calls of active or inactive are those of the source. Rule for the calls: active = hit-call score of the fitted dose curve at least 0.9, where 1 is the maximum; inactive = score below 0.9.
Possible outcomes: y (active), n (inactive)

- Input Smiles: "CCCCCCCCCCCCCCCCCC(=O)O"
  Qualitative Label: "n"
- Input Smiles: "CC(=O)OCCOCCOCCOC(C)=O"
  Qualitative Label: "n"
- Input Smiles: "Cc1cccc(Nc2cc(Cl)nc(SCC(=O)O)n2)c1C"
  Qualitative Label: "n"
- Input Smiles: "Cc1ccc(Cl)cc1"
  Qualitative Label: "n"
- Input Smiles: "CCCCCCCCCCCCCO"
  Qualitative Label: "y"
- Input Smiles: "Oc1ccc2c(c1)OC[C@@H](N1CCC(O)(c3ccc(F)cc3)CC1)[C@H]2O"
  Qualitative Label: "n"
- Input Smiles: "Cc1ccc2ncccc2c1"
  Qualitative Label: "n"
- Input Smiles: "NCCO"
  Qualitative Label: "n"
